- target or test system: Retinaldehyde dehydrogenase 3 (Homo sapiens)
- test method notes: qHTS for Inhibitors of the Aldehyde Dehydrogenase Family (ALDH1A3) Primary screen (AID 2061315);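 further: plate controls were DMSO vehicle for no effect and reference inhibitor for full effect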
- condition set: ALDH inhibition qHTS; series mostly up to 56 µM
Inconclusive results are not listed. Active and inactive are the calls of the source. The call rests on the fitted dose curve; in most records, active means well fitted inhibition curve with a large enough effect; inconclusive means small, poorly fitted or top-dose-only effect; inactive means no such curve, though single readings can be large or run the other way.
attribute measured: activity change, negative = inhibition

Sample answers from the record:
{"molecule": "C/C=C/C=C/[C@@H]1O[C@](O)([C@H](CC)C(=O)NC/C=C/C=C(\\C)[C@@H](OC)[C@@H](C)[C@@H]2O[C@H](/C=C/C=C/C=C(\\C)C(=O)c3c(O)ccn(C)c3=O)[C@H](O)[C@@H]2O)[C@H](O)[C@H](O)C1(C)C", "activity change, negative = inhibition": "inactive"}
{"molecule": "CC(C)(C)NCc1cc(Nc2ccnc3cc(Cl)ccc23)c2c(c1O)CCCC2", "activity change, negative = inhibition": "-4.88% [at 0.464 µM] (inactive)"}
{"molecule": "CC(C)C[C@H](CO)Nc1nc(S[C@@H](C)c2ccccc2)nc2nc(N)sc12", "activity change, negative = inhibition": "inactive"}
{"molecule": "CC1CC2OC3(OC2C(C)(C)O)C1C1(C)CCC24CC25CCC(O[C@@H]2OC[C@@H](O)[C@H](O)[C@H]2O)C(C)(C)C5CC=C4C1(C)C3O (stereo partly drawn)", "activity change, negative = inhibition": "inactive"}

In: Please give the measured activity change, negative = inhibition for this molecule: CN1c2ccccc2C(=O)N2CCC3c4ccccc4NC3C21 (stereo not drawn)
Out: inactive

###

- target or test system: Cellular tumor antigen p53 (Homo sapiens)
- test method notes: Primary qHTS for small molecule compounds that upregulate eGFP-tagged delta133p53alpha (in N-terminal) cells. (AID 2060322);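 further: cells pre-induced with doxycycline then dosed without doxycycline; 0% = DMSO vehicle and 100% = reference activator; nearly all actives have a fitted effect of over 75% in size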
- condition set: NCI-H358 eGFP-delta133p53alpha fluorescence, 24 h; active compounds read high
Records with an inconclusive call do not appear.
attribute measured: activation (%)
Kindly answer with a numeric value in %, unit omitted.

Sample answers from the record:
{"molecule": "COc1ccc(C2(CNC(=O)c3ccc(NC(=O)c4ccco4)cc3)CCOCC2)cc1", "value units": "%", "activation": 5.25}
{"molecule": "O=c1cc(N2CCN(c3cccc(C(F)(F)F)c3)CC2)[nH]c(=O)n1C1CCCCC1", "value units": "%", "activation": 25}
{"molecule": "C[C@]1(O)CC[C@@H]2C(C(=O)O)=CO[C@@H](O[C@@H]3O[C@H](COC(=O)/C=C/c4ccc(O)c(O)c4)[C@@H](O)[C@H](O)[C@H]3O)[C@@H]21", "value units": "%", "activation": 0}
{"molecule": "C[C@@H]1N[C@H]2N(C1=O)c1ccccc1[C@@]2(O)C[C@@H]1C(=O)N[C@@H](C)c2nc3ccccc3c(=O)n21", "value units": "%", "activation": -22.9}

In: Please give the measured activation for this molecule: O=C(O[C@H]1[C@@H]2C=CO[C@@H](O[C@@H]3O[C@H](CO)[C@@H](O)[C@H](O)[C@H]3O)[C@@H]2[C@@]2(CO)O[C@@H]12)c1ccccc1
Out: 10.7

In: Please give the measured activation for this molecule: CCNC(=O)OC1CCN(c2nncc3cc(OC)c(OC)cc23)CC1
Out: -7.67

In: Please give the measured activation for this molecule: CNC(C)C(=O)NC(C(=O)N1CCCC1c1nc(C(=O)c2ccc(F)cc2)cs1)C1CCCCC1 (stereo not drawn)
Out: 17.2

In: Please give the measured activation for this molecule: C[C@]12C=CC(=O)C=C1[C@@H](F)C[C@@H]1[C@@H]2[C@@H](O)C[C@@]2(C)[C@H]1CC[C@]2(O)C(=O)CO
Out: 7.53

###

- target or test system: Cellular tumor antigen p53 (Homo sapiens)
- test method notes: Primary qHTS for small molecule compounds that upregulate eGFP-tagged delta133p53alpha (in N-terminal) cells. (AID 2060322);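 further: cells pre-induced with doxycycline then dosed without doxycycline; 0% = DMSO vehicle and 100% = reference activator; nearly all actives have a fitted effect of over 75% in size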
- condition set: NCI-H358 eGFP-delta133p53alpha fluorescence, 24 h; active compounds read high
- Source text: Assay Development and Screening Technology National Center for Advancing Translational Sciences (NCATS), National Institute of Health (NIH), Rockville, Maryland Cellular senescence (CS) is one of the hallmarks of aging and age-related diseases. […] Here we report the development and validation of a cell-based quantitative high throughput screening (qHTS) assay in 1,536-well format. […]
Inconclusive results are not listed.
attribute measured: activation (%)
Kindly answer with a numeric value in %, unit omitted.

Sample answers from the record:
{"compound": "C/C=C(\\C)C(=O)O[C@H]1[C@H](O)[C@]2(COC(C)=O)[C@H](O)C[C@]3(C)C(=CCC4[C@@]5(C)CC[C@H](O[C@@H]6O[C@H](C(=O)O)[C@@H](O[C@@H]7O[C@H](CO)[C@@H](O)[C@H](O)[C@H]7O)[C@H](O)[C@H]6O[C@@H]6O[C@H](CO)[C@@H](O)[C@H](O)[C@H]6O)[C@](C)(CO)C5CC[C@]43C)[C@@H]2CC1(C)C (stereo partly specified)", "target or test system": "Cellular tumor antigen p53 (Homo sapiens)", "attribute measured": "activation", "recorded value": -8.4}
{"compound": "C=C1C[C@@]23CC[C@H]4[C@@](C)(CCC[C@@]4(C)C(=O)OC4OC(CO)C(O)C(O)C4O)[C@@H]2CC[C@]1(OC1OC(CO)C(O)C(O)C1OC1OC(CO)C(O)C(O)C1O)C3 (stereo partly specified)", "target or test system": "Cellular tumor antigen p53 (Homo sapiens)", "attribute measured": "activation", "recorded value": -5.25}
{"compound": "CC(=O)OC1CCC2(C)C(CCC3(C)C2CC=C2C4CC(C)(C)CCC4(C)CCC23C)C1(C)C(=O)O (stereo unspecified)", "target or test system": "Cellular tumor antigen p53 (Homo sapiens)", "attribute measured": "activation", "recorded value": 27.7}
{"compound": "CC1CC=C2C1CC1(O)C(=O)CC2(C)C1(C)CO (stereo unspecified)", "target or test system": "Cellular tumor antigen p53 (Homo sapiens)", "attribute measured": "activation", "recorded value": 3.82}
{"compound": "CCN(c1ccccc1)c1cc(NC)[n+](C)c(C)n1", "target or test system": "Cellular tumor antigen p53 (Homo sapiens)", "attribute measured": "activation", "recorded value": 3.67}
{"compound": "CC(=O)Oc1cccc(O)c1", "target or test system": "Cellular tumor antigen p53 (Homo sapiens)", "attribute measured": "activation", "recorded value": 18.6}
{"compound": "O=C(Nc1ccc(Cl)c(Cl)c1)C1CC1", "target or test system": "Cellular tumor antigen p53 (Homo sapiens)", "attribute measured": "activation", "recorded value": -7.53}
{"compound": "NCCCCC(=O)O", "target or test system": "Cellular tumor antigen p53 (Homo sapiens)", "attribute measured": "activation", "recorded value": -27.1}

In: Please give the measured activation for this compound: C=C(C)C(=O)O[C@H]1[C@H]2C(=C)C(=O)O[C@@H]2/C=C(\CO)CC/C=C(/C=O)[C@@H]1O
Out: -6.11

In: Please give the measured activation for this compound: NC(=O)N1CCC(CC(=O)N2CCC([C@H]3c4ncc(Br)cc4CCc4cc(Cl)cc(Br)c43)CC2)CC1
Out: 7.44

In: Please give the measured activation for this compound: CC(C)(O)CC[C@@H](O)[C@](C)(O)[C@H]1CC[C@@]2(O)C3=CC(=O)[C@@H]4C[C@@H](O)[C@@H](O)C[C@]4(C)[C@@H]3CC[C@]12C
Out: -14.8

In: Please give the measured activation for this compound: CC(C)C[C@H](CC(=O)NO)C(=O)N[C@H](C(=O)N[C@@H](C)C(=O)NCCN)C(C)(C)C
Out: 3.67

In: Please give the measured activation for this compound: COC(=O)C1=COC(OC2OC(CO)C(O)C(O)C2O)C2C(C)C(OC(=O)/C=C/c3ccc(O)cc3)C(O)C12 (stereo unspecified)
Out: -8.93

###

Potency: recorded values
- test method notes: BET inhibitor-based combinations targeting novel dependencies in MECOM-rearranged (r) AML: SET-2 cell line (AID 2202231); further: potency means the concentration at half of the fitted maximal effect; nearly all actives have a fitted effect of over 35% in size
- condition set: SET-2 AML cells viability, CellTiter-Glo luminescence, 48 h
Inconclusive results are not listed. Active and inactive are the calls of the source. Calls come from the whole dose curve; as a rule, active = well fitted inhibition curve with a large enough effect; inconclusive = small, poorly fitted or top-dose-only effect; inactive = no such curve, though single readings can be large or run the other way.

Sample answers from the record:
{"compound structure": "CN1CCc2c(c3ccccc3n2Cc2ccc(C(=O)NO)cc2)C1", "attribute measured": "Potency", "recorded value": "20.9 µM (active)"}
{"compound structure": "CCOc1cc2ncc(C#N)c(Nc3ccc(F)c(Cl)c3)c2cc1NC(=O)/C=C/CN(C)C", "attribute measured": "Potency", "recorded value": "5.9 µM (active)"}

Now for the compound whose Potency we want.
In: Please give the measured Potency for this compound: O=C(O)c1cccc(-c2noc(-c3ccccc3F)n2)c1
Out: 20.9 µM (active)

###

- test method notes: BET inhibitor-based combinations targeting novel dependencies in MECOM-rearranged (r) AML: HNT-34 cell line (AID 2202234); further: nearly all actives have a fitted effect of over 35% in size
- condition set: HNT-34 AML viability, CellTiter-Glo luminescence, 48 h; series mostly up to 46 µM
Results filed as inconclusive are left out. Active and inactive are the calls of the source. Calls come from the whole dose curve; as a rule, active = well fitted inhibition curve with a large enough effect; inconclusive = small, poorly fitted or top-dose-only effect; inactive = no such curve, though single readings can be large or run the other way.
Tick one outcome: T for active, F for inactive

Answered examples (3):
{"molecule": "Clc1ccccc1CN1CCc2sccc2C1", "discrete label": "F"}
{"molecule": "O=C(CCl)Nc1cccc(NC2=NS(=O)(=O)c3ccccc32)c1", "discrete label": "T"}
{"molecule": "CCCCc1oc2ccc(NS(C)(=O)=O)cc2c1C(=O)c1ccc(OCCCN(CCCC)CCCC)cc1", "discrete label": "T"}

In: Write down the call the test reported for this molecule. Item: O=C(CCCCCCNC(=O)c1cnc(N(c2ccccc2)c2ccccc2)nc1)NO
Out: T

In: Write down the call the test reported for this molecule. Item: O=C(c1ccc(NS(=O)(=O)c2cccc3cccnc23)cc1)N1CCN(CC2CC2)CC1
Out: F
